target: Sterol 14-alpha demethylase (Trypanosoma cruzi (strain CL Brener)) (UniProt Q7Z1V1); test: TcCYP51 inhibitors, dose response, mechanism study for T. cruzi antiparasitic project, biochemical, recombinant enzyme (AID 1159558);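 also: enzyme in bacterial membranes with Anopheles gambiae CYP reductase and cytochrome b5 partners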; conditions: recombinant T. cruzi CYP51, BOMCC fluorescence
Sequence (Q7Z1V1 whole entry, looked up): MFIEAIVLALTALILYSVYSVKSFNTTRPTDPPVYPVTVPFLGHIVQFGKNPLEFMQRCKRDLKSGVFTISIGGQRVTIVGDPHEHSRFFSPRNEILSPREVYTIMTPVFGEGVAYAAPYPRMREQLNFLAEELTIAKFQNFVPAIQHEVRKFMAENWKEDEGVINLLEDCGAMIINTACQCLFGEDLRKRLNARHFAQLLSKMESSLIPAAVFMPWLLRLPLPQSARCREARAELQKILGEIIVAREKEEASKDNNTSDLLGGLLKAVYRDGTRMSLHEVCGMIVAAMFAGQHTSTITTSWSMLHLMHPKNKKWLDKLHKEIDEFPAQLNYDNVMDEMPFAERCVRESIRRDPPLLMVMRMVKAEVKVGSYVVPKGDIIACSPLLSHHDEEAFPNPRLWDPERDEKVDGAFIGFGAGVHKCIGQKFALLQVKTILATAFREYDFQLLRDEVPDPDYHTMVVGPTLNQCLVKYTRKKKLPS
Calls of active or inactive are those of the source.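 The calls were made as follows: active = IC50 against T. cruzi CYP51 below a set limit; inactive = the rest.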
Would you mind answering with one of these outcomes? TRUE (active), FALSE (inactive)

Before answering, review these 2 worked examples.
Cc1ccccc1OCC(=O)N1CCCN(c2cccnn2)CC1: TRUE
CCOc1ccc(OCC(=O)N2c3ccccc3CC2C(=O)NC)cc1 (centres undefined): FALSE

Ask: How did this test come out for CC(C)N(C(=O)CN1C(=O)C(N)C(=O)N(c2ccccc2)c2ccccc21)c1ccccc1 (centres undefined) ?
Result: TRUE

Ask: Could you check what this test reported for Cc1c(C(=O)NCCCCn2ccnc2)oc2c(C)cccc12 ?
Result: TRUE

Ask: Hi, sorry to bother you, what did the test record for COCCn1c(-c2ccccc2)cnc1NCc1ccccc1OC ?
Result: TRUE

Ask: # outcome recorded in this test, key = COc1ccc(S(=O)(=O)Nc2ccc(C(=O)Nc3nc(-c4ccccn4)cs3)cc2)cc1
Result: TRUE

Ask: GET /call?item= Cc1cnc(Nc2cc(Cc3ccccc3)nc(NC3CCC(O)CC3)n2)s1 (centres undefined) returns the recorded outcome of this test.
Result: FALSE

Ask: Tell me the recorded outcome of this test for COc1ccc(NS(=O)(=O)c2cccc(NC(=O)c3cc(F)cc(F)c3)c2)cc1 .
Result: FALSE

Ask: Lab log entry: COc1ccccc1-c1c(C)[nH]c2nc(N)nc(C)c12 — outcome as called in the assay?
Result: FALSE

Ask: Per the records of this test, what outcome belongs to COc1ccc(Nc2nccc(N(C)c3n[nH]c4c(F)cccc34)n2)cc1S(C)(=O)=O ?
Result: TRUE

====

molecular target: Sterol 14-alpha demethylase (Trypanosoma cruzi (strain CL Brener)) (UniProt Q7Z1V1); assay: TcCYP51 inhibitors, dose response, mechanism study for T. cruzi antiparasitic project, biochemical, recombinant enzyme (AID 1159558); conditions: recombinant T. cruzi CYP51, BOMCC fluorescence
Calls of active or inactive are those of the source.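 Rule for the calls: active = IC50 against T. cruzi CYP51 below a set limit; inactive = the rest.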
Just give me one of these, please: active, inactive

CCCCn1c(=O)c2c(N)onc2n(CCCC)c1=O: active

Ask: Hey, what did the test say about COc1ncc(-c2ccc3ncnc(N4CCOCC4)c3c2)cc1NS(C)(=O)=O ?
Result: active

Ask: Returns: the outcome recorded for CC(C)(C)c1cc(NC2CC2)nc(-c2ccccn2)n1 in this assay.
Result: inactive

Ask: Which outcome did this test record for the compound CNC(=O)Oc1ccc(C(=O)NCc2ccccc2)cc1OC(=O)NC ?
Result: inactive

Ask: Please indicate how the test categorized O=C(CN(Cc1ccccn1)Cc1ccccn1)NCc1ccc2c(c1)OCO2 .
Result: active

Ask: Identify the outcome logged in this assay for the compound shown: CC(CNS(=O)(=O)c1ccc(OC(F)F)cc1)c1ccc(NC(=O)c2ccncc2)cc1 (stereo unspecified)
Result: active

====

target: Sterol 14-alpha demethylase (Trypanosoma cruzi (strain CL Brener)); experiment: TcCYP51 inhibitors, dose response, mechanism study for T. cruzi antiparasitic project, biochemical, recombinant enzyme (AID 1159558);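 also: enzyme in bacterial membranes with Anopheles gambiae CYP reductase and cytochrome b5 partners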; conditions: recombinant T. cruzi CYP51, BOMCC fluorescence
Calls of active or inactive are those of the source.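 Rule for the calls: active = IC50 against T. cruzi CYP51 below a set limit; inactive = the rest.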
Respond only with the outcome that fits, drawn from y = active, n = inactive

Cc1cc(C)n(-c2nc(NC(C)(C)C)nc(N3CCOCC3)n2)n1: n
Cc1c(C#N)c([N+](=O)[O-])nn1Cc1cccc(Cl)c1Cl: n
CNS(=O)(=O)c1ccccc1Nc1nc(Nc2cc(C)nn2C)ncc1Cl: y
CCn1nccc1CN(C)C(=O)C=Cc1ccc(Cl)cc1: y
CC(C)S(=O)(=O)c1ccc(-c2cnc(N)c3cc(-c4ccnc(N)n4)ccc23)cc1: y

Ask: I would be grateful if you could indicate the recorded call for Cc1cccc(NS(=O)(=O)c2ccc3c(c2)C(=O)c2cc(S(=O)(=O)Nc4cccc(C)c4C)ccc2-3)c1C .
Result: n

Ask: Which outcome was assigned to NC(=O)c1cc(F)ccc1Nc1nc(NC2CCC(O)CC2)ncc1Br (stereo not drawn) in this test?
Result: y

Ask: Name the outcome recorded for O=C(Nc1ccc(-c2nc3ccccc3c(=O)[nH]2)cc1)c1cccs1 in the assay.
Result: n

Ask: Test call, this molecule: COc1ccc2ncc(=O)n(CCN3CCOC(CNCc4ccc(C(F)(F)F)cc4F)C3)c2n1 (stereo not drawn)
Result: y

Ask: Entry O=c1cc(NCCCNCc2c[nH]c3ccc(Br)cc23)[nH]c2ccccc12 : call = ?
Result: n

Ask: Please indicate how the test categorized NC(=O)c1ncc(N[C@@H]2CCCNC2)nc1Nc1cccc(Cl)c1 .
Result: n

Ask: What did this assay record as the result for COc1ccc(C(=O)N2CCC(Nc3cccnc3)C2)c(OC)n1 (stereo not drawn) ?
Result: y

Ask: Name the outcome recorded for COc1ccc(NS(=O)(=O)c2cc(NC(=O)c3ccc([N+](=O)[O-])s3)ccc2OC)cc1 in the assay.
Result: y

Ask: Tell me the assay call for O=c1cc(NCCCNCc2cc(C(F)(F)F)cs2)[nH]c2ccccc12 please.
Result: y

Ask: Would you mind telling me which call this test gave Cc1cc2nc(N3CC[C@H]3C(N)=O)nc(Nc3cc(C4CC4)[nH]n3)c2s1 ?
Result: n

Ask: Please share the test call associated with COc1ccnc2[nH]cc(-c3cc(C(=O)N[C@H](CO)c4ccccc4)co3)c12 .
Result: y

Ask: // return assay outcome for CCC(=O)Nc1ccc(C(=O)Nc2ccccc2-c2ccccc2)cc1
Result: n

Ask: Could you check what this test reported for CC1CCCN(S(=O)(=O)c2ccc(C(=O)Nc3nc(-c4ccccn4)cs3)cc2)C1 (stereo not drawn) ?
Result: y

Ask: Dear colleague, could you share the recorded outcome for COc1cc(OC)cc(C(NS(=O)(=O)c2ccc(Cl)c(C(F)(F)F)c2)c2nccn2C)c1 (stereo not drawn) when you have a moment?
Result: y

Ask: Hi team, can someone confirm the assay call for Cc1cn[nH]c1C1CCCN(Cc2nc3ccccc3n2C)C1 (stereo not drawn) ?
Result: y

Ask: Please let me know the test result on file for CC1=NN(C(=O)CCn2cnc([N+](=O)[O-])n2)C(O)(C(F)(F)F)C1 (stereo not drawn) .
Result: n

Ask: Record request — test call for O=C(Nc1nc2ccccc2[nH]1)c1ccc2nc[nH]c2c1
Result: y

Ask: Query: recorded result category for O=c1ccc2ccc(F)c3c2n1C[C@H]3CN1CCN(CC(O)c2cc3c(cn2)OCS3)CC1 (stereo partly drawn) in this test
Result: n

Ask: What did this assay record as the result for CC1CN(Cc2ccc(C#N)cc2)CCN1c1ccc(NC(=O)c2ccccc2F)cc1 (stereo not drawn) ?
Result: y

Ask: Lab log entry: Cn1nc(-c2ccc(NC(=O)Cc3ccccc3Cl)cc2)c2c(N)ncnc21 — outcome as called in the assay?
Result: y

Ask: Just curious, what result did O=C(CC1(O)C(=O)N(Cc2cccs2)c2ccc(Br)cc21)c1cccnc1 (stereo not drawn) get here?
Result: y

Ask: Which result was noted for this molecule in the test: O=[N+]([O-])c1ccc(-c2nnn(-c3cccnc3)n2)o1
Result: y

====

molecular target: Sterol 14-alpha demethylase (Trypanosoma cruzi (strain CL Brener)); assay: TcCYP51 inhibitors, dose response, mechanism study for T. cruzi antiparasitic project, biochemical, recombinant enzyme (AID 1159558);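 also: enzyme in bacterial membranes with Anopheles gambiae CYP reductase and cytochrome b5 partners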; conditions: recombinant T. cruzi CYP51, BOMCC fluorescence;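 active = IC50 against T. cruzi CYP51 below a set limit; inactive = the rest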
Pick one and only one: 1 = active, 0 = inactive

Reference set, count: 2
CN(Cc1nc2c(C(=O)N3CCN(Cc4ccccc4)CC3)cccc2[nH]1)C1CCCc2cccnc21 (configuration not stated): 1
O=C(NCCc1cccnc1)c1ccc(-c2ccccc2F)o1: 1

Ask: What classification did C[C@@H](Oc1cc(-n2cnc3ccc(O[C@H]4CCNC4)cc32)sc1C(N)=O)c1ccccc1Cl end up with in this test?
Result: 1

====

biological target: Sterol 14-alpha demethylase (Trypanosoma cruzi (strain CL Brener)); experiment: TcCYP51 inhibitors, dose response, mechanism study for T. cruzi antiparasitic project, biochemical, recombinant enzyme (AID 1159558);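 also: enzyme in bacterial membranes with Anopheles gambiae CYP reductase and cytochrome b5 partners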; conditions: recombinant T. cruzi CYP51, BOMCC fluorescence
Active and inactive are the calls of the source.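 Rule for the calls: active = IC50 against T. cruzi CYP51 below a set limit; inactive = the rest.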
Assign a class; possible classes are 1 (active), 0 (inactive)

As a guide, the following entries are already answered.
Cc1nc(C(=O)Nc2ccc3c(c2)OCO3)nn1-c1ccc(F)cc1: 1
O=C(NCCc1csc(-c2cccc(F)c2)n1)c1ccco1: 0
CC(CCc1ccccc1)NC(=O)CN(Cc1ccccn1)Cc1ccccn1 (stereo unspecified): 1
Cc1ccc(-c2csc(NC(=O)C=Cc3ccc(S(=O)(=O)N4CCOCC4)cc3)n2)o1: 1
Cc1cc2ncn(-c3ccc([N+](=O)[O-])cc3C#N)c2cc1C: 0
O=c1ccc2ccc(F)c3c2n1C[C@H]3CN1CCC(NCc2cc3ccccc3o2)CC1: 1

Ask: Which outcome was entered for the molecule Cc1ccccc1NS(=O)(=O)c1ccc2[nH]cc(C(=O)NC3CCCC(C)C3C)c(=O)c2c1 (stereo unspecified) in this test?
Result: 1

Ask: Fill in: this test's call for Cc1ccc(C)c(-n2nnnc2Sc2nc([N+](=O)[O-])nn2C)c1 is ___
Result: 0

Ask: Please let me know the test result on file for NCc1csc(Nc2cc(Oc3ccccc3)ncn2)n1 .
Result: 1

Ask: Lab log entry: CN1C(=O)c2ccccc2Sc2ccc(NC(=O)NCc3ccco3)cc21 — outcome as called in the assay?
Result: 1

Ask: Given O=C(Nc1nc2ccccc2[nH]1)c1c(O)c2cccc3c2n(c1=O)CC3 , state the outcome it received in this test.
Result: 0
